Tested on: Vincristine-resistant strain P388/VCR cells of mouse leukemia P388 cells
Test: Potentiating effect on vincristine in mice having vincristine-resistant mouse leukemia (survival)
Format: in vivo, mouse (female CDFI mice)
Settings: compound 30 mg/kg + vincristine 100 ug/kg, peritoneal, once a day for 5 days; control = 100
Give measured T/C (rate of life prolongation) for each item. Keep answers brief.

Recall and state the measured T/C (rate of life prolongation) for COc1ccc2c(OCC(O)CN3CCN(C4c5ccccc5CCc5ccccc54)CC3)cccc2n1 (centres unmarked) .
134%

Look up T/C (rate of life prolongation) of c1ccc(C(=C2CCN(CCCOc3cccc4ncccc34)CC2)c2ccccc2)cc1 and report it.
121%

Identify measured T/C (rate of life prolongation) corresponding to CCc1cnc2cccc(OCC(O)CN3CCN(C(c4ccccc4)c4ccccc4)CC3)c2c1 (centres unmarked)
114%

Fill in T/C (rate of life prolongation) for record OC(COc1cccc2ncccc12)CN1CCN(C(c2ccccc2)c2ccccn2)CC1 (centres unmarked)
117%

Give the measured T/C (rate of life prolongation) for c1ccc(C(c2ccccc2)N2CCN(CCOc3cccc4ncccc34)CC2)cc1
98%

Please give the documented T/C (rate of life prolongation) of O=C(CCN1CCN(C2c3ccccc3CCc3ccccc32)CC1)Nc1cccc2ncccc12
122%

Entry COc1ccc2c(OCC(O)CN3CCN(C(c4ccccc4)c4ccccc4)CC3)cccc2n1 (centres unmarked) needs its T/C (rate of life prolongation) filled in; supply it.
126%

Provide only the value of recorded T/C (rate of life prolongation) for OC(COc1cccc2ncccc12)CN1CCN(C(c2ccc(F)cc2)c2ccc(F)cc2)CC1 (centres unmarked)
124%
